- Test system: VZV strain Ellen
- assay: VZV Antiviral (ELISA) Assay in human foreskin fibroblast cells
- Type: cell-based, varicella-zoster virus
- condition context: Human alphaherpesvirus 3, Fibroblast, read-out: IC50 (ug/ml) VZV
assay readout: IC50

What value of IC50 has been recorded for this entry: `COc1ccc(NC(=S)Nc2ccc(NC(=O)c3ccccc3F)cc2)cc1F`
> 10 µg/mL

What value of IC50 has been recorded for this entry: `O=C(Nc1ccc(NC(=S)Nc2cc(Cl)c(Cl)c(Cl)c2)cc1)c1ccccc1F`
> 10 µg/mL

What value of IC50 has been recorded for this entry: `NC(=O)c1cccc(NC(=S)Nc2ccc(NC(=O)c3ccccc3F)cc2)c1`
> 10 µg/mL

What value of IC50 has been recorded for this entry: `O=C(Nc1ccc(NC(=S)NCc2cc(F)cc(C(F)(F)F)c2)cc1)c1ccccc1F`
> 10 µg/mL

What value of IC50 has been recorded for this entry: `O=C(Nc1ccc(NC(=S)NCc2ccc(F)c(C(F)(F)F)c2)cc1)c1ccccc1F`
> 10 µg/mL

What value of IC50 has been recorded for this entry: `O=C(Nc1ccc(NC(=S)Nc2cc(Cl)ccc2Cl)cc1)c1ccccc1F`
> 10 µg/mL

What value of IC50 has been recorded for this entry: `O=C(Nc1ccc(NC(=S)Nc2ccc(F)c(Cl)c2)cc1)c1ccccc1F`
> 10 µg/mL

What value of IC50 has been recorded for this entry: `O=C(Nc1ccc(NC(=S)Nc2ccc(Br)c(Cl)c2)cc1)c1ccccc1F`
> 10 µg/mL

What value of IC50 has been recorded for this entry: COc1ccccc1C(=O)Nc1ccc(NC(=S)NC(C)c2cc3ccccc3o2)cc1 (stereo not drawn)
0.09 µg/mL

What value of IC50 has been recorded for this entry: `C[C@H](NC(=S)Nc1ccc(NC(=O)c2ccccc2F)cc1)c1ccccc1`
0.27 µg/mL

What value of IC50 has been recorded for this entry: `O=C(Nc1ccc(NC(=S)Nc2ccc(OCC(F)(F)F)cc2OCC(F)(F)F)cc1)c1ccccc1F`
> 10 µg/mL

What value of IC50 has been recorded for this entry: `O=C(Nc1ccc(NC(=S)Nc2cccc(OC(F)(F)F)c2)cc1)c1ccccc1F`
> 10 µg/mL

What value of IC50 has been recorded for this entry: O=C(Nc1ccc(NC(=S)NC(CO)c2ccccc2)cc1)c1ccccc1F (stereo not drawn)
1.7 µg/mL

What value of IC50 has been recorded for this entry: `O=C(O)c1cccc(NC(=S)Nc2ccc(NC(=O)c3ccco3)cc2)c1`
> 10 µg/mL

What value of IC50 has been recorded for this entry: `CSc1ccc(NC(=S)Nc2ccc(NC(=O)c3ccccc3F)cc2)cc1Cl`
> 10 µg/mL

What value of IC50 has been recorded for this entry: `C[C@@H](NC(=S)Nc1ccc(NC(=O)c2ccccc2F)cc1)c1ccc(Br)cc1`
4.3 µg/mL

What value of IC50 has been recorded for this entry: `O=C(Nc1ccc(NC(=S)Nc2cc(Cl)cc(Cl)c2)cc1)c1ccccc1F`
> 10 µg/mL

What value of IC50 has been recorded for this entry: `COc1cc(C)c(Cl)cc1NC(=S)Nc1ccc(NC(=O)c2ccccc2F)cc1`
> 10 µg/mL

Reference source: patent US6462055B2
